All values here come from patent US8802678B2.

measurement.type: melting point (°C)
Express the result in °C but write the number alone.

Prompt line: Bench note: what melting point did `COc1c(Cl)cccc1N1CCN(CC[C@H]2CC[C@H](NC(=O)CC#N)CC2)CC1` show?
Response line: 122

---

measurement.type: melting point (°C)
Express the result in °C but write the number alone.

Prompt line: Bench note: what melting point did COCCCC(=O)N[C@H]1CC[C@H](CCN2CCN(c3ccc(F)c(F)c3F)CC2)CC1 [Example 652] show?
Response line: 203

Prompt line: Now the compound N#CCCCCC(=O)NC1CCC(CCN2CCN(c3cccc(C(F)(F)F)c3)CC2)CC1 (centres unmarked) [Example 745]
Response line: 90

Prompt line: Now the compound `CC(=O)CN1CCC(CCN2CCN(c3ccc4c(c3)CCC4)CC2)CC1.Cl.Cl`
Response line: 291

Prompt line: Now the compound C[S+]([O-])CC(=O)N[C@H]1CC[C@H](CCN2CCN(c3cccc(C(F)(F)F)c3)CC2)CC1 (some centres unmarked) [Example 334]
Response line: 153

Prompt line: Now the compound N#CCC(=O)N[C@H]1CC[C@H](CCN2CCN(c3cc(F)cc(F)c3)CC2)CC1 [Example 159]
Response line: 196

Prompt line: Now the compound N#CCCCC(=O)N[C@H]1CC[C@@H](CCN2CCN(c3cccc(C(F)(F)F)c3F)CC2)CC1 [Example 366]
Response line: 95

Prompt line: Now the compound CCOCC(=O)N[C@H]1CC[C@H](CCN2CCN(c3cc(F)c(F)c(F)c3)CC2)CC1 [Example 465]
Response line: 133

Prompt line: Now the compound COCCC(=O)N[C@H]1CC[C@H](CCN2CCN(c3cccc(C(F)(F)F)c3)CC2)CC1 [Example 47]
Response line: 125

---

Reported melting point values for the following molecules.
Express the result in °C but write the number alone.

Worked cases, melting point given:
substance.smiles | melting point (°C)
Cc1ccc(N2CCN(CC[C@H]3CC[C@H](NC(=O)CCCC#N)CC3)CC2)cc1C | 172
N#CCCCC(=O)N[C@H]1CC[C@H](CCN2CCN(c3cc(Cl)cc(C(F)(F)F)c3)CC2)CC1 | 152
CS(=O)(=O)CC(=O)N[C@H]1CC[C@H](CCN2CCN(c3cccc(F)c3F)CC2)CC1 | 214

Prompt line: Bench note: what melting point did `CC(=O)CN1CCC(CCN2CCN(c3ccc(F)c(C(F)(F)F)c3)CC2)CC1.Cl.Cl` show?
Response line: 266

Prompt line: Now the molecule `N#CCCCC(=O)N[C@H]1CC[C@H](CCN2CCN(c3ccc(F)c(Cl)c3)CC2)CC1`
Response line: 142

Prompt line: Now the molecule `Cc1ccc(N2CCN(CC[C@H]3CC[C@H](NC(=O)C4=CCCC4)CC3)CC2)cc1C`
Response line: 201

Prompt line: Now the molecule `CC(C)OCC(=O)N[C@H]1CC[C@H](CCN2CCN(c3ccccc3F)CC2)CC1`
Response line: 96

Prompt line: Now the molecule `O=C(N[C@H]1CC[C@H](CCN2CCN(c3cccc(F)c3)CC2)CC1)C1=Cc2ccccc2C1`
Response line: 242

---

Reported melting point values for the following compounds.
Express the result in °C but write the number alone.

Worked cases, melting point given:
substance.smiles | melting point [°C]
N#Cc1cccc(N2CCN(CC[C@H]3CC[C@H](NC(=O)CC(F)(F)F)CC3)CC2)c1 | 180
N#CCCCC(=O)N[C@H]1CC[C@H](CCN2CCN(c3cccc(C(F)(F)F)c3)CC2)CC1 | 149
N#CCCCC(=O)N[C@H]1CC[C@H](CCN2CCN(c3cc(C(F)(F)F)ccc3Cl)CC2)CC1 | 168
COc1ccc(C(F)(F)F)cc1N1CCN(CC[C@H]2CC[C@H](NC(=O)CCCC#N)CC2)CC1 | 136
COCC(=O)N[C@H]1CC[C@H](CCN2CCN(c3cc(C(F)(F)F)ccc3F)CC2)CC1 | 139

Prompt line: Bench note: what melting point did `COCCCC(=O)N[C@H]1CC[C@H](CCN2CCN(c3ccc(Cl)cc3)CC2)CC1` show?
Response line: 204

Prompt line: Now the compound `N#CCC(=O)N[C@H]1CC[C@H](CCN2CC=C(c3cc(C(F)(F)F)ccc3F)CC2)CC1`
Response line: 168

Prompt line: Now the compound `CCOCC(=O)N[C@H]1CC[C@H](CCN2CC=C(c3cccc(C(F)(F)F)c3)CC2)CC1`
Response line: 75
